Target: vanilloid receptor 1 (VR1/TRPV1 receptor) (Homo sapiens)
Construct: expressed in transfected cells; host or cells: CHO K1
Assay: Functional testing on the vanilloid receptor 1 (VR1/TRPV1): FLIPR Ca2+ influx assay, displacement of capsaicin
Type: cell-based, human being
Conditions: capsaicin (Cap) as stimulus; Ki from IC50 by Cheng-Prusoff; read-out: (f) Ki (human being) [nM] Cap
# binning rule on Ki: one = under 20 nM, two = from 20 nM up to 40 nM, three = 40 nM and over

Record excerpt, results attached:
>  <molecule>
CC(C(=O)NCc1cc(C(C)(C)C)nn1-c1cccc(Cl)c1)c1cnc(NS(C)(=O)=O)c(F)c1 (stereo not shown)

>  <label class>
one

$$$$
>  <molecule>
CC(C(=O)NCc1cc(C(C)(C)C)nn1-c1cccc(Cl)c1)c1ccc(NS(C)(=O)=O)nc1 (stereo not shown)

>  <label class>
one

$$$$
>  <molecule>
CC(C)(C)c1cc(CNC(=O)Nc2ccc(N3CCC3)nc2)n(-c2cccc(Cl)c2)n1

>  <label class>
three

$$$$

-- ask Hi, small favor: classify O=C(NCc1cc(C(F)(F)F)nn1-c1ccc(F)c(F)c1)Nc1ccc(NCCO)nc1 by its Ki when you get a moment.
-- reply two

-- ask The entry to classify is CN(CCO)c1ccc(NC(=O)NCc2cc(C(C)(C)C)nn2-c2cccc(Cl)c2)cn1 ; which class holds it?
-- reply one

-- ask Looking at CC(C(=O)NCc1cc(C(F)(F)F)nn1-c1cccc(Cl)c1)c1ccc(NC(=O)c2ccccc2)nc1 (stereo not shown) , which class would you pick?
-- reply two

-- ask Returns: class label. Input: CC(C(=O)NCc1cc(C(F)(F)F)nn1-c1cccc(F)c1)c1ccc(NS(C)(=O)=O)nc1 (stereo not shown)
-- reply two

-- ask Textbook exercise: identify the category of the molecule given here, CC(C(=O)NCc1cc(C(F)(F)F)nn1-c1cccc(Cl)c1)c1ccc(C(N)=O)nc1 (stereo not shown) , according to its measured value.
-- reply two

-- ask Each molecule maps to one class by Ki. Which class for CC(C)(C)c1cc(CNC(=O)Nc2ccc(N3CCCC3)nc2)n(-c2cccc(Cl)c2)n1 ?
-- reply two

-- ask Textbook exercise: identify the category of the molecule given here, O=C(NCc1cc(C(F)(F)F)nn1-c1ccc(F)c(Cl)c1)Nc1ccc(N2CC(O)C2)nc1 , according to its measured value.
-- reply three

-- ask Given Cc1cccc(-n2nc(C(F)(F)F)cc2CNC(=O)C(C)c2ccc(CCO)nc2)c1 (stereo not shown) , name the class its Ki places it in.
-- reply three

-- ask Please let me know in which category the item CC(C)(C)c1cc(CNC(=O)Nc2ccc(N3CC(O)C3)nc2)n(-c2cccc(Cl)c2)n1 belongs.
-- reply one

-- ask # bin label for CS(=O)(=O)CCc1ncc(NC(=O)NCc2cc(C3CC3)nn2-c2cccc(Cl)c2)cc1F
-- reply three

----------
The following compounds are listed with their measured inhibition at 5 µM values.
Target: vanilloid receptor 1 (VR1/TRPV1 receptor) (Homo sapiens, UniProt Q8NER1)
Construct: expressed in transfected cells; host or cells: CHO K1
Sequence (Q8NER1 whole entry): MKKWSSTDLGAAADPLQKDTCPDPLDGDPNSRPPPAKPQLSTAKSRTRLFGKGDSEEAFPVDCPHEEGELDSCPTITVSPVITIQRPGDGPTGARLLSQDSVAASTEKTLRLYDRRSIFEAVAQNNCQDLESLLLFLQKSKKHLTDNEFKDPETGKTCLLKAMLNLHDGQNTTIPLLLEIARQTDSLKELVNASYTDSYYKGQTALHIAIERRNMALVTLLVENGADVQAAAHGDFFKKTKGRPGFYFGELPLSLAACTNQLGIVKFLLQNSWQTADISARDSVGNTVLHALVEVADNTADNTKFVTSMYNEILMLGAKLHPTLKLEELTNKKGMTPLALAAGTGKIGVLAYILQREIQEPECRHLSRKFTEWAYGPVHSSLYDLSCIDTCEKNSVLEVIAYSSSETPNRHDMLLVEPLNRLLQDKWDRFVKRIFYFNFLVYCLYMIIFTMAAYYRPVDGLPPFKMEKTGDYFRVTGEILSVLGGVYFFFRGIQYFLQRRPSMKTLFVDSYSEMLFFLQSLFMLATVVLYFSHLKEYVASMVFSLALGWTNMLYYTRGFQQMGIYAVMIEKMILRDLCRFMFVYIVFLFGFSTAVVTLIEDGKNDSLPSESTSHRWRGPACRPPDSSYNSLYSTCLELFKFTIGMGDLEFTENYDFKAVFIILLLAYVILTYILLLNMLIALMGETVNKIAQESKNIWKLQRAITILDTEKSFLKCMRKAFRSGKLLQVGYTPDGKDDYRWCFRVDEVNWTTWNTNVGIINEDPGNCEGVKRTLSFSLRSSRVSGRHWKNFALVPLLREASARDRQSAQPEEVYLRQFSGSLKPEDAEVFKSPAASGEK
Experiment: Functional testing on the vanilloid receptor 1 (VR1/TRPV1): FLIPR Ca2+ influx assay, displacement of capsaicin
Format: cell-based, human being
Conditions: 5 μM compound; capsaicin (Cap); human being; read-out: inhibition (as a percentage) at the concentration after @, Cap
Numbers only; they are read as %.

These solved cases illustrate the format of a correct answer.
>  <compound>
CC(C)(C)c1cc(CNC(=O)Cc2ccncc2)n(-c2cccc(Cl)c2)n1 [Example 10]

>  <target entity>
vanilloid receptor 1 (VR1/TRPV1 receptor) (Homo sapiens, UniProt Q8NER1)

>  <inhibition at 5 µM, %>
90

$$$$
>  <compound>
CC(C)(C)c1cc(CNC(=O)Cc2cccnc2)n(-c2cccc(Cl)c2)n1 [Example 6]

>  <target entity>
vanilloid receptor 1 (VR1/TRPV1 receptor) (Homo sapiens, UniProt Q8NER1)

>  <inhibition at 5 µM, %>
89

$$$$
>  <compound>
CC(C(=O)NCc1cc(C(C)(C)C)nn1-c1cccc(Cl)c1)c1ccccn1 (centres unmarked) [Example 2]

>  <target entity>
vanilloid receptor 1 (VR1/TRPV1 receptor) (Homo sapiens, UniProt Q8NER1)

>  <inhibition at 5 µM, %>
89

$$$$
>  <compound>
COCCOc1ccc(NC(=O)NCc2cc(C(F)(F)F)nn2-c2cccc(Cl)c2)cn1 [Example 132]

>  <target entity>
vanilloid receptor 1 (VR1/TRPV1 receptor) (Homo sapiens, UniProt Q8NER1)

>  <inhibition at 5 µM, %>
45

$$$$

Now examine the next entry.
The observed inhibition at 5 µM for O=C(NCc1cc(C(F)(F)F)nn1-c1cccc(F)c1)Nc1ccc(CO)nc1 [Example 33] when tested with vanilloid receptor 1 (VR1/TRPV1 receptor) (Homo sapiens, UniProt Q8NER1) stands at 41

----------
Molecular target: vanilloid receptor 1 (VR1/TRPV1 receptor) (Homo sapiens)
Construct: expressed in transfected cells; host or cells: CHO K1
Test: Functional testing on the vanilloid receptor 1 (VR1/TRPV1): FLIPR Ca2+ influx assay, displacement of capsaicin
Type: cell-based, human being
Settings: capsaicin (Cap) as stimulus; Ki from IC50 by Cheng-Prusoff; read-out: (f) Ki (human being) [nM] Cap
Binary label based on Ki with cut-off 40 nM: below gives true, not below gives false.

Example cases with answers are listed next.
>  <compound>
Cc1cc(C)c(NC(=O)NCc2cc(C(F)(F)F)nn2-c2cccc(Cl)c2)cn1

>  <label class>
false

$$$$
>  <compound>
CC(C)(C)c1cc(CNC(=O)Nc2ccc(CO)nc2)n(-c2cccc(F)c2)n1

>  <label class>
false

$$$$
>  <compound>
CC(C)(C)c1cc(CNC(=O)Nc2ccc(NCCO)nc2)n(-c2cccc(Cl)c2)n1

>  <label class>
true

$$$$
>  <compound>
CN(C)c1ncc(NC(=O)NCc2cc(C(C)(C)C)nn2-c2cccc(Cl)c2)cc1C(F)(F)F

>  <label class>
true

$$$$
>  <compound>
O=C(NCc1cc(C(F)(F)F)nn1-c1cccc(Cl)c1)Nc1ccc(N2CC(O)C2)nc1

>  <label class>
true

$$$$

-- ask hey, is Ki for Cc1cncc(NC(=O)NCc2cc(C(F)(F)F)nn2-c2cccc(Cl)c2)c1 lower than 40 nM or not?
-- reply false

-- ask I'd appreciate it if you could check whether CC(C(=O)NCc1cc(C(F)(F)F)nn1-c1cccc(Cl)c1)c1ccc(NS(C)(=O)=O)nc1 (centres unmarked) has Ki smaller than 40 nM.
-- reply true

-- ask # strict comparison: is reported Ki < 40 nM? input = CN(C)c1ncc(NC(=O)NCc2cc(C(F)(F)F)nn2-c2cccc(Cl)c2)cc1C(F)(F)F
-- reply true

-- ask Record CC(C)(C)c1cc(CNC(=O)Nc2ccc(N3CC(O)C3)nc2)n(-c2cccc(F)c2)n1 : is its Ki strictly below 40 nM?
-- reply true

-- ask Is the reported Ki for CC(C)(C)c1cc(CNC(=O)Nc2cnc(CCS(C)(=O)=O)c(F)c2)n(-c2cccc(Cl)c2)n1 strictly below 40 nM?
-- reply true

-- ask Field: below-cutoff. Rule: recorded Ki strictly less than 40 nM. Subject: CC(C(=O)NCc1cc(C(C)(C)C)nn1-c1cccc(Cl)c1)c1ccc(NC(=O)c2ccc(F)cc2)nc1 (centres unmarked)
-- reply true

-- ask Given CC(C(=O)NCc1cc(C(F)(F)F)nn1-c1cccc(Cl)c1)c1ccc(CNS(C)(=O)=O)nc1 (centres unmarked) , is recorded Ki strictly lower than 40 nM?
-- reply false

-- ask API: query returns whether the compound falls strictly under 40 nM in Ki. Query: CC(C)(C)c1cc(CNC(=O)Nc2ccc(NCCO)nc2)n(-c2cccc(F)c2)n1
-- reply true

-- ask Identify whether the compound COCCNc1ccc(C(C)C(=O)NCc2cc(C(F)(F)F)nn2-c2cccc(Cl)c2)cn1 (centres unmarked) records Ki below 40 nM.
-- reply true

-- ask Dear colleague, could you confirm whether Ki of CC(C(=O)NCc1cc(C(F)(F)F)nn1-c1cccc(Cl)c1)c1cnc(NS(C)(=O)=O)c(F)c1 (centres unmarked) falls below 40 nM? Thanks.
-- reply true

-- ask Does this compound meet the criterion Ki < 40 nM? O=C(NCc1cc(C(F)(F)F)nn1-c1cc(F)cc(F)c1)Nc1ccc(NCCO)nc1
-- reply true

-- ask For Cc1nc(CCO)ccc1NC(=O)NCc1cc(C(F)(F)F)nn1-c1cccc(Cl)c1 , is the recorded Ki below the cut-off of 40 nM?
-- reply false

-- ask Hello, I'm reviewing records and need to know if Ki of CC(C(=O)NCc1cc(C2CC2)nn1-c1cccc(Cl)c1)c1ccc(CCO)nc1 (centres unmarked) is below 40 nM. Could you check?
-- reply false

-- ask Does the reported Ki of O=C(NCc1cc(C(F)(F)F)nn1-c1cccc(Cl)c1)Nc1cnc(CO)c(F)c1 stay below 40 nM?
-- reply true

-- ask Strictly below 40 nM: is that where Ki of CC(C(=O)NCc1cc(C(F)(F)F)nn1-c1cccc(Cl)c1)c1cnc(C(=O)Nc2ccc(F)cc2)nc1 (centres unmarked) sits?
-- reply true

-- ask Is Ki of COc1cc(C(C)C(=O)NCc2cc(C(F)(F)F)nn2-c2cccc(Cl)c2)cnc1NS(C)(=O)=O (centres unmarked) strictly below 40 nM?
-- reply true

-- ask Hello, I'm reviewing records and need to know if Ki of CS(=O)(=O)CCc1ccc(NC(=O)NCc2cc(C(F)(F)F)nn2-c2cccc(Cl)c2)cn1 is below 40 nM. Could you check?
-- reply false

-- ask Please state whether Ki is below 40 nM for CC(C(=O)NCc1cc(C(F)(F)F)nn1-c1cccc(Cl)c1)c1ccc(COCCO)nc1 (centres unmarked)
-- reply false

-- ask Hello, is Ki of the following compound strictly smaller than 40 nM? COc1cc(C(C)C(=O)NCc2cc(C(C)(C)C)nn2-c2cccc(Cl)c2)cnc1NS(C)(=O)=O (centres unmarked)
-- reply true

-- ask Ki under 40 nM? Item: CC(C(=O)NCc1cc(C(F)(F)F)nn1-c1cccc(Cl)c1)c1ccc(NC(=O)c2ccc(F)cc2)nc1 (centres unmarked)
-- reply true

-- ask Below 40 nM on Ki? Entry Cc1ccc(NC(=O)NCc2cc(C(F)(F)F)nn2-c2cccc(Cl)c2)cn1
-- reply false

-- ask Input CC(C)(C)c1cc(CNC(=O)Nc2ccc(C(N)=O)nc2)n(-c2cccc(Cl)c2)n1 ; condition: Ki strictly below 40 nM. Does it hold?
-- reply true
